Target: recombinant BACE1 protein (Homo sapiens, UniProt P56817)
Construct: recombinant BACE1 protein in a final concentration of 0.04 μg/mL
Sequence (P56817 46-501): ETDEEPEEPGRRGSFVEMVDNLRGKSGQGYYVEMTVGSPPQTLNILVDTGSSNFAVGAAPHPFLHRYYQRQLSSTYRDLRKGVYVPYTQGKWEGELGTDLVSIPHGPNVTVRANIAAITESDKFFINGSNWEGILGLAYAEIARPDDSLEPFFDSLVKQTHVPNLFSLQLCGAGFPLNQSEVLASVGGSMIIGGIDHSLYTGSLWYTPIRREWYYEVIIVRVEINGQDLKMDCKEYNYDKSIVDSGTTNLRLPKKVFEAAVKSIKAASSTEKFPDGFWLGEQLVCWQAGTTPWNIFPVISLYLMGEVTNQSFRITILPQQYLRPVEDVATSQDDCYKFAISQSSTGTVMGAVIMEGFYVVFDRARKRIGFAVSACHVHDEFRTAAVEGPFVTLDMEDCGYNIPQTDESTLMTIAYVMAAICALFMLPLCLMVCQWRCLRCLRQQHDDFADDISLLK
Assay: BACE1 biochemical FRET based assay
Conditions: BACE2 IC50 relative to BACE1 IC50
Experimental Endpoint: Selectivity

Example entries and their recorded answers appear below.
Compound: C[C@]1(c2cc(NC(=O)c3cnc(OCF)cn3)ccc2F)N=C(N)O[C@@H]2CO[C@@H](CC(F)F)[C@@H]21 [Compound I-019]
Selectivity: 60.2
--
Compound: C[C@H]1OC[C@H]2[C@@H]1OC(N)=N[C@]2(CF)c1cc(NC(=O)c2cnc(-n3cncn3)cn2)ccc1F [Compound I-051]
Selectivity: 63.1
--
Compound: CC(C)CCC[C@@H]1OC[C@H]2OC(N)=N[C@](C)(c3cc(NC(=O)c4cnc(OCF)cn4)ccc3F)[C@@H]12 [Compound I-025]
Selectivity: 9.3

[P] C[C@@H]1OC[C@H]2[C@@H]1OC(N)=N[C@]2(CF)c1cc(NC(=O)c2cnc(OCF)cn2)ccc1F [Compound I-082]
[Q] CC(C)C[C@@H]1OC[C@H]2OC(N)=N[C@](C)(c3cc(NC(=O)c4cnc(OC[C@@H](C)F)cn4)ccc3F)[C@@H]12 [Compound I-029]
[R] Cc1noc(C)c1[C@@H]1OC[C@H]2OC(N)=N[C@](C)(c3cc(NC(=O)c4cnc(OCF)cn4)ccc3F)[C@H]21 [Compound I-031]
// ascending sort on recorded Selectivity List the labels according to the requested ordering.
P, Q, R

* * *

Assay: Metabolic stability test
Assay type: in vitro ADME
Conditions: human liver microsomes 0.5 mg protein/mL, NADPH, 37° C.
Experimental Endpoint: Remaining rate (%) at 30 min

Answered examples (5):
Test Smiles: NC1=N[C@](CF)(c2cc(NC(=O)c3cnc(OCF)cn3)ccc2F)[C@H]2CO[C@@H](CF)[C@H]2O1
Endpoint Value: 91
--
Test Smiles: NC1=N[C@](CF)(c2cc(NC(=O)c3cnc(OCF)cn3)ccc2F)[C@H]2[C@H](CCF)OC[C@H]2O1
Endpoint Value: 93
--
Test Smiles: C[C@@H]1OC[C@H]2[C@@H]1OC(N)=N[C@]2(CF)c1cc(NC(=O)c2cnc(OC(F)F)cn2)ccc1F
Endpoint Value: 85
--
Test Smiles: CC1(C)OC[C@H]2[C@@H]1OC(N)=N[C@]2(CF)c1cc(NC(=O)c2cnc(OCF)cn2)ccc1F
Endpoint Value: 65
--
Test Smiles: NC1=N[C@](CF)(c2cc(NC(=O)c3cnc(OCF)cn3)ccc2F)[C@H]2[C@H](CC(F)F)OC[C@H]2O1
Endpoint Value: 92

[I] C[C@@H]1OC[C@H]2[C@@H]1OC(N)=N[C@]2(CF)c1cc(NC(=O)c2cnc(OCF)cn2)ccc1F
[II] C[C@H]1OC[C@H]2[C@@H]1OC(N)=N[C@]2(CF)c1cc(NC(=O)c2cnc(OCF)cn2)cc(F)c1F
Compare I and II and name the one whose reported Remaining rate (%) at 30 min is smaller. Mark your answer with the label of the selected entry.
II

* * *

Molecular target: recombinant BACE1 protein (Homo sapiens)
Construct: recombinant BACE1 protein in a final concentration of 0.04 μg/mL
Assay: BACE1 biochemical FRET based assay
Details: BACE2 IC50 relative to BACE1 IC50
Experimental Endpoint: Selectivity

Sample answers from the record:
Test Smiles: C[C@]1(c2cc(NC(=O)c3cnc(OCF)cn3)ccc2F)N=C(N)O[C@@H]2CO[C@@H](C(F)F)[C@@H]21
Selectivity: 27.5

Test Smiles: C[C@]1(c2cc(NC(=O)c3ccc(C#N)cn3)ccc2F)N=C(N)O[C@@H]2CO[C@@H](C(F)(F)F)[C@@H]21
Selectivity: 62.3

Test Smiles: NC1=N[C@](CF)(c2cc(NC(=O)c3cnc(OCF)cn3)ccc2F)[C@@H]2COCC[C@H]2O1
Selectivity: 23.4

[a] C[C@]1(c2cc(NC(=O)c3ccc(C#N)cn3)ccc2F)N=C(N)O[C@@H]2CO[C@@H](CCF)[C@@H]21
[b] CC[C@@H]1OC[C@H]2OC(N)=N[C@](C)(c3cc(NC(=O)c4cnc(OCF)cn4)ccc3F)[C@@H]12
[c] CC(C)C[C@@H]1OC[C@H]2OC(N)=N[C@](C)(c3cc(NC(=O)c4cnc(OCF)cn4)ccc3F)[C@@H]12
[d] Cn1cc([C@@H]2OC[C@H]3OC(N)=N[C@](C)(c4cc(NC(=O)c5cnc(OCF)cn5)ccc4F)[C@H]32)cn1
// smallest Selectivity at index 0, largest at the end Your answer should be the labels, listed in the requested order.
a, b, c, d
(a: 21.4, b: 51.2, c: 87.1, d: 223)
